Measured pEC50 values are reported for all entries that follow.
Target: T1, human interleukin 13 receptor subunit alpha 2 (IL-13RA2) (human, UniProt Q14627 27-380)
T1 construct: whole, on cells; also called IL-13Rα2; CD213A2
T1 sequence (looked up): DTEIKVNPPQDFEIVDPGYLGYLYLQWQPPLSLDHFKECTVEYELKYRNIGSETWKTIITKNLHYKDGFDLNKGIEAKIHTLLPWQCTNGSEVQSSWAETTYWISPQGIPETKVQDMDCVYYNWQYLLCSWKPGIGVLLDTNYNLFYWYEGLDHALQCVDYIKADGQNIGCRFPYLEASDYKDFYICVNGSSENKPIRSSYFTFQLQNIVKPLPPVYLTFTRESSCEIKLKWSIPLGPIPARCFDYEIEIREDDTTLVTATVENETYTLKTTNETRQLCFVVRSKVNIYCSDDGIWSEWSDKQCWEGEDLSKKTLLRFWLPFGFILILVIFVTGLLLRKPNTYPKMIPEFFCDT
Assay: FACS on A375 cells
Remember the convention: pEC50 equals -log10 of concentration in molar.

Examples from the recorded data:
xi54A4F7 hIgG1 (antibody, V domains shown) VH: EVKLVESGGGLVKPGGSLKLSCAASGFTFSSYGMSWVRQTPEKRLEWVATISGGGSYTYYPDSVKGRFTISRDNAKNNLYLQMSSLRSEDTALYYCARRDLRSAMDHWGQGTSVTVSS VL: DIVMTQSQKFMSTSVGDRVSVTCRASQNVDINVAWYQQKPGQSPKSLIYSASYRYSGVPDRFTGSGSGTDFTLTISNVQSEDLAEYFCQQYNSYPLTFGGGTKLEIR; 9.20
xi74B5E4 hIgG1 (antibody, V domains shown) VH: EVKLVESGGGLVKPGGSLRLSCAASGFTFSTYGMSWVRQTPEKRLEWVATISGGGSYTYYPDSVKGRFTISRDNAKNNLYLQMSSLRSEDTALYYCARRDLRSAMDYWGQGTSVTVSS VL: DIVMTQSQKFMSTSVGDRVSVTCKASQNVDINVAWYQQKPGQSPKALIYSASYRYSGVPDRFTGSGSGTDFTLTISNVQSEDLAEYFCQQYNTYPLTFGGGTKLEIK; 9.15

// moving on: another record for pEC50
-- ask I have this binder here, xi73A11E2 hIgG1 (antibody, V domains shown) VH: EVKLVESGGGLVKPGGSLKLSCAASGFTFSSYGMSWVRQTPEKRLEWVATISGGGSYTYYPDSVKGRFTISRDNARNNLYLQMNSLRSEDTALYYCARRDLRSAMDYWGQGTSVTVSS VL: DIVMTQSQKFMSTSVGDRVSVTCKASQNVDINVAWYQQKPGQSPKALIYSASYRYSGVPDRFTGSGSGTDFTLTISNVQSEDLAEFFCQQYNSYPLTFGGGTKLEIK , and I need its recorded pEC50.
-- reply 9.19

Data provenance is patent US20250163164A1.
